- experiment: Encapsulation efficiency of lipid nanoparticles, Quant-it Ribogreen RNA assay
- Type: physicochemical
- experimentalSetup: LNP of lipid/DSPC/cholesterol/PEG-lipid 50:10:38.5:1.5 encapsulating hEPO mRNA
Listed here are molecules together with their documented Encapsulation Efficiency.
Answer with the value and then the unit.

Some entries whose results are on file:
molecule	Encapsulation Efficiency
CCCCCCCCCCCOC(=O)CCCCCN(CC=C(C)C)CCN(CCCCCC(=O)OCC(CCCCCCCC)CCCCCCCC)C1CCC(O)CC1 (stereo not drawn)	92.89%
CCCCCCCCC(CCCCCCCC)COC(=O)CCCCCN(CCN(CCCCCC(=O)OCC(CCCCCCCC)CCCCCCCC)C1CCC(O)CC1)C1CCC1 (stereo not drawn)	95.6%
CCCCCCCCC(CCCCCCCC)COC(=O)CCCCCN(CCO)CCN(CCCCCC(=O)OCC(CCCCCCCC)CCCCCCCC)C1CCOCC1	92.4%
CCCCCCCCC(CCCCCC)CNC(=O)CCCCCN(CCO)CCN(CCCCC(COC(=O)CCCCCCC)COC(=O)CCCCCCC)C1CCCC1 (stereo not drawn)	90.03%
CCCCCCCCC(CCCCCC)COC(=O)CCCCCN(CCO)CCN(CCCCC(COC(=O)CCCCCCC)COC(=O)CCCCCCC)C1CCCCCCC1 (stereo not drawn)	84.58%

Query :: If you can, please state the reported Encapsulation Efficiency value of CCCCCCCCCCCOC(=O)CCCCCN(CCN(CCO)CCCCCC(=O)OCC(CCCCCCCC)CCCCCCCC)C1CCC(F)(F)CC1 .
Result :: 95.5%

----------
// values below are reported Encapsulation Efficiency
- experiment: Encapsulation efficiency of lipid nanoparticles, Quant-it Ribogreen RNA assay
- Format: physicochemical
- experimentalSetup: LNP of lipid/DSPC/cholesterol/PEG-lipid 50:10:38.5:1.5 encapsulating hEPO mRNA
Reply numerically in %, unit not repeated.

Take a look at these entries with their results.
compound	unitTag	assayValue
CCCCCCCC(=O)OCC(COCCN(CCO)CCN(CCOCC(COC(=O)CCCCCCC)COC(=O)CCCCCCC)C1CCCCC1)COC(=O)CCCCCCC [Compound 179]	%	89.97
CCCCCCCCC(CCCCCC)CNC(=O)CCCCCN(CCCCN(CCO)CCCCC(COC(=O)CCCCCCC)COC(=O)CCCCCCC)C1CCCCCC1 (stereo not drawn) [Compound 198]	%	88.41
CCCCCCCCCCCOC(=O)CCCCCN(CCO)CCN(CCCCCC(=O)OCC(CCCCCCCC)CCCCCCCC)C1CCCCC1 [Compound 45]	%	90.9
CCCCCCCCC(CCCCCCCC)COC(=O)CCCCCN(CCO)CCN(CCCCCC(=O)OCCCCCC)C1CCCCC1 [Compound 101]	%	87.20
CCCCCCCCCCCC(=O)OCC(CCCCN(CCO)CCN(CCCCC(COC(=O)CCCCCCCCCCC)COC(=O)CCCCCCCCCCC)C1CCC1)COC(=O)CCCCCCCCCCC [Compound 169]	%	89.88

Lab note: next compound to report on.
Query :: Using the record for CCCCCCCCCCCCCCCCC(CN(CCO)CCN(CC(CCCCCCCCCCCCCCCC)OCCCCCCCC)C1CCC1)OCCCCCCCC (stereo not drawn) [Compound 25] , report its Encapsulation Efficiency.
Result :: 90.67

----------
- experiment: Encapsulation efficiency of lipid nanoparticles, Quant-it Ribogreen RNA assay
- Assay type: physicochemical
- experimentalSetup: LNP of lipid/DSPC/cholesterol/PEG-lipid 50:10:38.5:1.5 encapsulating hEPO mRNA
outcomeMeasure: Encapsulation Efficiency
State the result as a value with its unit after it.

These recorded examples may help you get a feel for the data.
compound	Encapsulation Efficiency
CCCCCCCCCCCCCCCCCCOC(=O)CCCCCN(CCN(CCO)CCCCCC(=O)OCC(CCCCCCCC)CCCCCCCC)C1CCCCC1	93.35%
CCCCCCCCC(CCCCCCCC)CC(=O)NCCCCCN(CCN(CCO)CCCCCOC(=O)CC(CCCCCCCC)CCCCCCCC)C1CCCCCCC1	92.59%
CCCCCCCCC(CCCCCC)CNC(=O)CCCCCN(CCCCN(CCO)CCCCC(COC(=O)CCCCCCC)COC(=O)CCCCCCC)C1CCCCCCC1 (stereo not shown)	94.30%

Could you now look at the following compound, please?
Query :: Find the recorded Encapsulation Efficiency belonging to CCCCCCCCCC(=O)OCC(CCCCN(CCO)CCN(CCCCC(COC(=O)CCCCCCCCC)COC(=O)CCCCCCCCC)C1CCC1)COC(=O)CCCCCCCCC and report it.
Result :: 91.97%

----------
Overview of recorded Apparent Pka for various compounds
- experiment: Apparent pKa of LNP formulations, TNS fluorescence assay
- Format: physicochemical
- experimentalSetup: LNP cationic lipid/DSPC/cholesterol/DMG-PEG 50/10/38.5/1.5 mol %
Give a plain numeric answer without units written out.

compound	outcomeMeasure	assayValue
CCCCCCCCC(CCCCCC)CNC(=O)CCCCCCCN(CCO)CCN(CCCCC(COC(=O)CCCCCCC)COC(=O)CCCCCCC)C1CCCC1 (stereo not shown)	Apparent Pka	6.566
CCCCCCCCC(CCCCCCCC)CNC(=O)CCCCCN(CCNc1c(NC)c(=O)c1=O)CCN(C)CCCCCC(=O)OCC(CCCCCCCC)CCCCCCCC	Apparent Pka	7.287
CCCCCCCCC(CCCCCCCC)COC(=O)CCCCCN(C)CCN(CCO)CCCCCC(=O)OCC(CCCCCCCC)CCCCCCCC	Apparent Pka	7.024

Query :: Given the compound CCCCCCCCC(CCCCCCCC)COC(=O)CCCCCN(CCO)CCN(CCCCCC(=O)OCCCCCC)C1CCCCC1 , what is its reported Apparent Pka?
Result :: 6.423

----------
- experiment: Encapsulation efficiency of lipid nanoparticles, Quant-it Ribogreen RNA assay
- Type: physicochemical
- experimentalSetup: LNP of lipid/DSPC/cholesterol/PEG-lipid 50:10:38.5:1.5 encapsulating hEPO mRNA
Listed here: items and their measured Encapsulation Efficiency.
Please respond with the number in % and leave the unit unwritten.

compound	outcomeMeasure	unitTag	assayValue
CCCCCCCCCCCOC(=O)CCCCCN(CCN(CCO)CCCCCC(=O)OCC(CCCCCCCC)CCCCCCCC)C1CCCCCC1	Encapsulation Efficiency	%	93.22
CCCCCCCCCOC(=O)CCCCCCCN(CCO)C1CCN(CCCCCCCC(=O)OC(CCCCCCCC)CCCCCCCC)CC1	Encapsulation Efficiency	%	95.27
CCCCCCCCCCCOC(=O)CCCCCN(CCN(CCO)CCCCC(COC(=O)CCCCCCC)COC(=O)CCCCCCC)C1CCCCC1	Encapsulation Efficiency	%	93.71
CCCCCCCCCCCOC(=O)CCCCCN(CCN(CCO)CCCCC(COC(=O)CCCCCCC)COC(=O)CCCCCCC)C1CCCC1	Encapsulation Efficiency	%	92.26

Query :: Return reported Encapsulation Efficiency; argument: CCCCCCCC/C=C\CCCCCCCC(=O)OCCCCCN(CCO)CCN(CCCCCNC(=O)CC(CCCCCC)CCCCCCCC)C1CCCCCC1 (stereo not shown)
Result :: 91.68

Query :: # get_value(readout='Encapsulation Efficiency', item= CCCCCCCCCCCOC(=O)CCCCCN(CCN(CCO)CCCCCC(=O)N(CCCCCCCC)CCCCCCCC)C1CCCCC1 )
Result :: 82.56

Query :: Would you kindly share the measured Encapsulation Efficiency for CCCCCCCCC(CCCCCCCC)CNC(=O)CCCCCN(CCO)CCN(CCCCCC(=O)OCC(CCCCCCCC)CCCCCCCC)C1CCC1 ?
Result :: 86.0

Query :: Entry under review: CCCCCCCCC(=O)OCC(CCCCN(CCO)CCN(CCCCC(COC(=O)CCCCCCCC)COC(=O)CCCCCCCC)C1CCC1)COC(=O)CCCCCCCC . Reported Encapsulation Efficiency?
Result :: 92.85

Query :: Consider the compound CCCCCCCCCCCOC(=O)CCCCCN(CCN(CCO)CCCCCC(=O)OCC(CCCCCCCC)CCCCCCCC)C1CC(F)(F)C1 and give its measured Encapsulation Efficiency.
Result :: 93.4

Query :: # input compound: CCCCCCCCC(CCCCCCCC)COC(=O)CCCCCN(CCO)CCN(CCCCCOC(=O)CCCCCC(CCCCCC)CCCCCC)C1CCC1 ; wanted: its Encapsulation Efficiency
Result :: 92.51

Query :: What value of Encapsulation Efficiency has been recorded for this entry: CCCCCCCCC(CCCCCCCC)COC(=O)CCCCCN(CCCCCC)CCN(CCCCCC(=O)OCC(CCCCCCCC)CCCCCCCC)C1CCC(O)CC1 (stereo not shown)
Result :: 95.7

Query :: Recorded Encapsulation Efficiency of CCCCCCCCC(CCCCCCCC)COC(=O)CCCCCN(C/C=C/CN(CCCCCC(=O)OCC(CCCCCCCC)CCCCCCCC)C1CCC1)CCO , please.
Result :: 93.10

Query :: Reported Encapsulation Efficiency, compound CCCCCCCC(=O)OCC(CCCCN(CC=C(C)C)CCN(CCO)CCCCC(COC(=O)CCCCCCC)COC(=O)CCCCCCC)COC(=O)CCCCCCC : ____
Result :: 85.46

Ref: patent US20230348362A1
